Quick reference for MIC50 among some molecules
- System: E. coli (APH(3′)Ia)
- assay.remarks: MIC 50, broth micro-dilution, E. coli expressing APH(3′)Ia
- Format: cell-based, Escherichia coli
- condition.parameters: ATCC25922 harboring plasmid encoding APH(3′)Ia
Answer in µM, number only, no unit symbol.

// below: answered molecules
molecule	obs.value
N=C(N)NC1[C@@H](O)C(OC2[C@@H](O)[C@H](O[C@H]3OC(CN)[C@@H](O)[C@H](O)C3N)C(N)C[C@H]2NC(=O)[C@@H](O)CCN)O[C@H](CO)[C@H]1O (stereo partly shown) [ABX4009, KanaB-AHB-Gua]	8
N=C(N)NC1[C@@H](O)C(OC2[C@@H](F)[C@H](O[C@H]3OC(CN)[C@@H](O)[C@H](O)C3N)C(N)C[C@H]2NC(=O)[C@@H](O)CCN)O[C@H](CO)[C@H]1O (stereo partly drawn) [ABX4004, 3′epi-KanaB-AHB-F-Gua]	4
NCCC(O)C(=O)NC1CC(N)C(OC2OC(CN)C(O)C(O)C2N)C(F)C1OC1OC(CO)C(O)C(N)C1O (stereo not shown) [ABX4007, KanaB-AHB-F]	4
NCC[C@H](O)C(=O)N[C@@H]1C[C@H](N)[C@@H](O[C@H]2O[C@H](CN)[C@@H](O)[C@@H](O)[C@H]2O)[C@H](O)[C@H]1O[C@H]1O[C@H](CO)[C@@H](O)[C@H](N)[C@H]1O [ABX3002, 3′Epi-KanaA-AHB]	32

Turning to the following molecule.
*Q* Hi! What's the reported MIC50 for N=C(N)N[C@@H]1[C@@H](O)[C@@H](O[C@@H]2[C@@H](O)[C@H](O[C@H]3O[C@H](CN)[C@@H](O)[C@@H](O)[C@H]3N)[C@@H](N)C[C@H]2NC(=O)[C@@H](O)CCN)O[C@H](CO)[C@H]1O [ABX4005, 3′Epi-KanaB-AHB-Gua] on E. coli (APH(3′)Ia)?
*A* 16

---

- System: E. coli (AAC(3)IV)
- assay.remarks: MIC 50, broth micro-dilution, E. coli expressing AAC(3)IV
- Format: cell-based, Escherichia coli
- condition.parameters: Escherichia coli, ATCC25922, ATCC25922 harboring plasmid encoding AAC(3)IV
Quick reference for MIC50 among some molecules

// below: answered molecules
molecule	system.under.test	readout.kind	obs.value
N=C(NCC1CCCO1)NC1[C@@H](O)C(OC2[C@@H](F)[C@H](O[C@H]3OC(CN)[C@@H](O)CC3N)C(N)C[C@H]2NC(=O)[C@@H](O)CCN)O[C@H](CO)[C@H]1O (stereo partly shown) [ABX5046]	E. coli (AAC(3)IV)	MIC50	1 to 2 µM
N=C(N)NC1[C@@H](O)C(OC2[C@@H](F)[C@H](O[C@H]3OC(CN)[C@@H](O)CC3N)C(N)C[C@H]2NC(=O)[C@@H](F)CCN)O[C@H](CO)[C@H]1O (stereo partly shown) [ABX5034, Tobra-(AFB)-F-Gua]	E. coli (AAC(3)IV)	MIC50	2 to 4 µM
C[C@@H](N)CCNC(=N)NC1[C@@H](O)C(OC2[C@@H](F)[C@H](O[C@H]3OC(CN)[C@@H](O)CC3N)C(N)C[C@H]2NC(=O)[C@@H](O)CCN)O[C@H](CO)[C@H]1O (stereo partly drawn) [ABX5047, Tobra-AHB-F-Gua (R) 3-amino-butyl]	E. coli (AAC(3)IV)	MIC50	1 to 2 µM

Turning to the following molecule.
*Q* Form field: reported MIC50 of N=C(NCc1cnc[nH]1)NC1[C@@H](O)C(OC2[C@@H](F)[C@H](O[C@H]3OC(CN)[C@@H](O)CC3N)C(N)C[C@H]2NC(=O)[C@@H](O)CCN)O[C@H](CO)[C@H]1O (stereo partly shown) [ABX5050, Tobra-AHB-F-Gua imidazol-5-yl methyl]
*A* 2 to 4 µM

Source listed as patent US20220127297A1.
